test system: U2OS; test: Multiplex assay against U2OS; format: toxicity, cell-based; conditions: human, 24 h, 1 µM, compound concentration 1 uM, replicate 2
readout kind: Population Pyknosed Nuclei (%)

- O=C(Cc1ccc(-c2ccc(OCCN3CCOCC3)cc2)cn1)NCc1ccccc1: 17
- COc1cc(N2CCN(C)CC2)ccc1Nc1ncc2c(n1)N(C)c1ccccc1C(=O)N2C: 14
- COc1cc2ncnc(Nc3ccc(F)c(Cl)c3)c2cc1NC(=O)/C=C/CN1CCCCC1 [DACOMITINIB ANHYDROUS]: 7
- CCc1cccc(CC)c1NC(=O)c1nn(C)c2c1CCc1cnc(Nc3ccc(C(=O)NC4CCN(C)CC4)cc3OC(F)(F)F)nc1-2: 11
- CCCS(=O)(=O)c1nc(NC2CC2)cc(-c2ccc3c(ccn3C3CC(C)(C)NC(C)(C)C3)c2)n1: 18
- NC(=O)c1cccc(-c2cc(Nc3ccc(OC(F)(F)F)cc3)ncn2)c1: 3
- Cc1ccc2nc(NCCN)c3ncc(C)n3c2c1.O=C(O)C(F)(F)F.O=C(O)C(F)(F)F: 9
- CCNc1cc(N[C@H]2CC[C@H](O)CC2)nc(Nc2ccc3c(ccn3Cc3ccccc3)c2)n1: 14
